TESTED SYSTEM: HIV-1 RT K103N/P225H (Human immunodeficiency virus type 1 group M subtype B, UniProt P03366, K702N/P824H)
Construct: an HIV RT clone pKRT2 containing only the RT p66 gene regulated by the lac operon/trc promoter
ASSAY INFO: Reverse transcriptase (RT) assay, K103N/P225H mutant
Please use YES for IC50 under 30 nM and NO for everything else, ties included.

compound="Cc1cc(F)nc2c1NC(=O)c1cc(CCOc3ccnc4ccccc34)cnc1N2C1CC1 [compound 5]" class_label=NO
compound="CCN1c2ncc(CCOc3cccc4c3ccc[n+]4[O-])cc2C(=O)N(C)c2ccc(F)nc21 [compound 18]" class_label=YES
compound="CCN1c2ncc(CCOc3ccnc4ccccc34)cc2C(=O)Nc2c(C)cc(F)nc21 [compound 7]" class_label=NO
compound="CCN1c2ncc(CCOc3cccc4ncccc34)cc2C(=O)Nc2c(C)cc(Cl)nc21 [compound 25]" class_label=YES
compound="CCN1C(=O)c2cc(CCOc3ccnc4ccccc34)cnc2N(CC)c2ncccc21 [compound 26]" class_label=NO
compound="Cc1ccnc2c1NC(=O)c1cc(CCOc3ccnc4ccccc34)cnc1N2C1CC1 [compound 3]" class_label=NO
compound="Cc1ccnc2c1NC(=O)c1cc(CCOc3cc[n+]([O-])c4ccccc34)cnc1N2C1CC1 [compound 15]" class_label=NO
compound="CCN1c2ncc(CCOc3cc[n+]([O-])c4ccccc34)cc2C(=O)N(C)c2ccc(F)nc21 [compound 11]" class_label=YES
compound="CCN1c2ncc(CCOc3ccnc4ccccc34)cc2C(=O)Nc2c(C)ccnc21 [compound 8]" class_label=NO
compound="CCN1c2ncc(CCOc3ccnc4ccccc34)cc2C(=O)Nc2c(C)cc(Cl)nc21 [compound 1]" class_label=NO
compound="CCN1c2ncc(CCOc3cc[n+]([O-])c4ccccc34)cc2C(=O)Nc2c(C)cc(F)nc21 [compound 9]" class_label=YES
compound="CCN1c2ncc(CCOc3ccnc4ccccc34)cc2C(=O)N(C)c2ccc(F)nc21 [compound 4]" class_label=YES
compound="CCN1c2ncc(CCOc3cc[n+]([O-])c4ccccc34)cc2C(=O)Nc2c(C)ccnc21 [compound 12]" class_label=NO
compound="CCN1c2ncc(CCOc3cc[n+]([O-])c4ccccc34)cc2C(=O)N(C)c2cccnc21 [compound 21]" class_label=NO
compound="CCN1c2ncc(CCOc3cc[n+]([O-])c4ccccc34)cc2C(=O)N(C)c2ccc(Cl)nc21 [compound 17]" class_label=YES
compound="CCN1c2ncc(CCOc3ccnc4ccccc34)cc2C(=O)N(C)c2ccc(Cl)nc21 [compound 2]" class_label=YES
compound="CCN1c2ncc(CCOc3cc[n+]([O-])c4ccccc34)cc2C(=O)N(C)c2ccc(C)nc21 [compound 28]" class_label=YES

Numbers sourced from patent US20020028807A1.
